Data origin: patent US12637462B2

method-description: Approximate solubility at RT by stepwise solvent addition
Assay type: physicochemical
applied-conditions: EtOAc, organic solvent or mixture, thermodynamic from solid, EtOAc, read-out: Solubility
property-label: Solubility

>  <chemical-structure>
COCCN(CCCCc1ccc2c(n1)NCCC2)CC[C@H](Nc1ncnc2ccccc12)C(=O)O

>  <property-label>
Solubility

>  <recorded-value>
2100 to 7000 µg/mL

$$$$

----------
method-description: Approximate solubility at RT by stepwise solvent addition
Format: physicochemical
applied-conditions: n-Heptane, organic solvent or mixture, thermodynamic from solid, n-Heptane, read-out: Solubility
property-label: Solubility

>  <chemical-structure>
COCCN(CCCCc1ccc2c(n1)NCCC2)CC[C@H](Nc1ncnc2ccccc12)C(=O)O

>  <recorded-value>
< 2200 µg/mL

$$$$
